assay_target: human ether-à-go-go-related gene (hERG) potassium channel (human);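 note: peak tail current of the secondary pulse compared with the same well before compound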
assay_explanation: primary screen, population patch clamp on CHO cells stably expressing hERG; higher = less effect of the substance
The whole screen tested about 310,000 compounds, of which about 14,000 (4.5%) showed an effect of 50% or more. The effect is printed as a negative number. Shown is part of a subset that was picked to be rich in strong results.
observed_property: hERG current change (%, negative = inhibition) at 10uM (%)
Report the figure in % without appending any unit label.

The recorded hERG current change (%, negative = inhibition) at 10uM for entry CC(C)Cc1nc2oc3c(NCc4cccnc4)ncnc3c2c2c1CCC2 equals -50.8

Entry O=C(Nc1ccc(F)c(Cl)c1)c1ccc2c(=O)n3c(nc2c1)CCCCC3 ; hERG current change (%, negative = inhibition) at 10uM = -36.6

Briefly, hERG current change (%, negative = inhibition) at 10uM measured for O=C(Nc1cccc(S(=O)(=O)N2CCCCC2)c1)c1ccc2c(=O)n3c(nc2c1)CCCCC3 : -64.5

The compound Cl.Clc1ccc(CNC2CCCC2)cc1 showed hERG current change (%, negative = inhibition) at 10uM equal to -13.1

The value of hERG current change (%, negative = inhibition) at 10uM measured for the compound CC(C)c1nc2oc3c(N(C)CCO)ncnc3c2c2c1CCC2 turned out to be -28.1

----------
Exercise: for every item that follows, state its recorded hERG current change (%, negative = inhibition) at 10uM.
assay_target: human ether-à-go-go-related gene (hERG) potassium channel (human, UniProt Q12809);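 note: peak tail current of the secondary pulse compared with the same well before compound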
Sequence (Q12809 whole entry, looked up): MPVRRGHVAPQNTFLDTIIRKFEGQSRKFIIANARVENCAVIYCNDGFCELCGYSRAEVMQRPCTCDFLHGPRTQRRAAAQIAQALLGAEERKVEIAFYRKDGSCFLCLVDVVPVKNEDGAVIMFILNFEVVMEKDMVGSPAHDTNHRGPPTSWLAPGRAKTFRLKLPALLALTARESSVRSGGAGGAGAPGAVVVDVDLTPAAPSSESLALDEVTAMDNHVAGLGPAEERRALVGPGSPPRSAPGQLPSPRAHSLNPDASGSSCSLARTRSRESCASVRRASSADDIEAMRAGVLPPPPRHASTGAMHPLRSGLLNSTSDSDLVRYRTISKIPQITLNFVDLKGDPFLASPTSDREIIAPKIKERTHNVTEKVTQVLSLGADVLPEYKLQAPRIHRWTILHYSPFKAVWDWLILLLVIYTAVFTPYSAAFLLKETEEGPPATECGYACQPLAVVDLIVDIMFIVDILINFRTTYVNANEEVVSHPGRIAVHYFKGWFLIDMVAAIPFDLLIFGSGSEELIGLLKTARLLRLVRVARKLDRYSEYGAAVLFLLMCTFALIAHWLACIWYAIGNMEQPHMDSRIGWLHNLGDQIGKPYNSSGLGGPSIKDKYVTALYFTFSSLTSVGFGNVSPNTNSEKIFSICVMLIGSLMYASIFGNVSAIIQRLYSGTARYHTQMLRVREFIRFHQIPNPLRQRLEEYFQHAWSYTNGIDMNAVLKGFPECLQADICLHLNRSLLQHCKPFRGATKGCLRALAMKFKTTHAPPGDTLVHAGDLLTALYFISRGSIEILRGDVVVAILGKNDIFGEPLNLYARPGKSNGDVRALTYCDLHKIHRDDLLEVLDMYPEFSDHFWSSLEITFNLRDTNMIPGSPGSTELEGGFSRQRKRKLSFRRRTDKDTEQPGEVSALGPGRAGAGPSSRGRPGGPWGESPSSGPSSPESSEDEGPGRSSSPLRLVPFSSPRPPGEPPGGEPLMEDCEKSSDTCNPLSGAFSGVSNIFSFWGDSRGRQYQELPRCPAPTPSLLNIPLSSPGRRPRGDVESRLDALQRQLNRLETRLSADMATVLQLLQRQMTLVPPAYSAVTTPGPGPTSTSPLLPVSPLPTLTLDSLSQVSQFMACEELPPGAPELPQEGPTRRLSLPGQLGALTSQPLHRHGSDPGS
assay_explanation: primary screen, population patch clamp on CHO cells stably expressing hERG; higher = less effect of the substance
In all, about 310,000 compounds went through this assay and about 14,000 (4.5%) showed an effect of 50% or more. Effects have a minus sign here. This excerpt belongs to a sample that is enriched for strong results.
// units = %; emit number, no label

Lab book: hERG current change (%, negative = inhibition) at 10uM of Nc1nccnc1C(=O)OCC(=O)N1CCN(S(=O)(=O)c2ccc(Cl)cc2)CC1 noted as -15.4

molecule CCOCCCNC(=O)c1cc(Sc2nnc(C)s2)nc2ccccc12 , hERG current change (%, negative = inhibition) at 10uM observed: -2.23

hERG current change (%, negative = inhibition) at 10uM in this record for CCOCCCNC(=O)c1cc(Sc2ccc(C)cc2)nc2ccccc12 : -19.3

Lab note: Cc1cc(C)cc(C(=O)Nc2ccncc2)c1 gave hERG current change (%, negative = inhibition) at 10uM of 7.83

Record summary for CCOC(=O)[C@@H]1[C@H]2COc3cc(OC)ccc3[C@@H]2N2C(=O)N(c3cccc(C)c3)C(=O)[C@@]12C : reported hERG current change (%, negative = inhibition) at 10uM = -5.14

The molecule identified as OCCN(Cc1ccccc1)Cc1ccc(F)c(F)c1 registered its hERG current change (%, negative = inhibition) at 10uM at -14.9

----------
assay_target: human ether-à-go-go-related gene (hERG) potassium channel (human);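 note: peak tail current of the secondary pulse compared with the same well before compound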
assay_explanation: primary screen, population patch clamp on CHO cells stably expressing hERG; higher = less effect of the substance
Hit rate of the full screen: of about 310,000 compounds, about 14,000 (4.5%) showed an effect of 50% or more. Effects have a minus sign here. The list comes from a sample in which strong results are over-represented; it also holds close analogues and randomly drawn compounds.
observed_property: hERG current change (%, negative = inhibition) at 10uM
Respond with a number, then the unit of measure.

Reported hERG current change (%, negative = inhibition) at 10uM of Cc1ccccc1C(=O)NCCCn1ccnc1 : 18.3%

Data point: CCOc1ccc(-c2cc(C(=O)NCCCn3ccnc3)c3cc(Br)ccc3n2)cc1 ; hERG current change (%, negative = inhibition) at 10uM = 7.06%

The compound Cc1nn(Cc2ccccc2Cl)c2sc(C(=O)NCCCn3ccnc3)cc12 showed hERG current change (%, negative = inhibition) at 10uM equal to -82.6%
